Molecular target: T1, Human ALPP (leucine zipper) (human)
T1 construct: Whole entry: ALPP fused with a cysteine stabilised leucine zipper and His tag; also called hALPP
T1 chain: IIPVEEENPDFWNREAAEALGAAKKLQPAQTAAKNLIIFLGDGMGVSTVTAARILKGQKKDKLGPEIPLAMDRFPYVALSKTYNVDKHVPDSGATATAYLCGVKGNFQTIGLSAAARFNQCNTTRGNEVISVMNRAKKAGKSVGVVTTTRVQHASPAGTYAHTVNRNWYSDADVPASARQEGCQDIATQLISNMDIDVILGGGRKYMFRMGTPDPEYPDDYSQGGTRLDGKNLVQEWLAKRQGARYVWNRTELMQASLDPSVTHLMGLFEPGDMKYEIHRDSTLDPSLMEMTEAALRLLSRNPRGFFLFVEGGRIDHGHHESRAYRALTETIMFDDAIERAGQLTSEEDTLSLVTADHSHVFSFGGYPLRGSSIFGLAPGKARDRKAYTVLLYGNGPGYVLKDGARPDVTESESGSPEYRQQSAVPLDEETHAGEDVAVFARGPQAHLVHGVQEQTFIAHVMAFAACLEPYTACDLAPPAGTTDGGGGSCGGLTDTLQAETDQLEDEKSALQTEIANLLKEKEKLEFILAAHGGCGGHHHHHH
Assay: BLI, antigen immobilised
measured-endpoint: kon (M⁻¹ s⁻¹)

* F08 His (VHH, not shown: small tags and cut ends, also called #269) VHH: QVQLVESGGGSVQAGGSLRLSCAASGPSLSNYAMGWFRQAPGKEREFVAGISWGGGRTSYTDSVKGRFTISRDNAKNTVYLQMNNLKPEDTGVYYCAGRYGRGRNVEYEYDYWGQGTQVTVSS | 252000
* C06 (VHH, not shown: small tags and cut ends) VHH: QVQLVESGGGLVQPGGSLRVSCAASGPSLSNYAMGWFRQAPGKEREFVAGISWGGGRTSYTDSVKGRFTISRDNAKNTVYLQMNNLKPEDTGVYYCAGRYGRGRNVEYEYDYWGQGTQVTVSS | 368000
* E11 (VHH, not shown: small tags and cut ends) VHH: QVQLVESGGGSVQAGGSLRLSCAASGPSLSNFAMGWFRQPPGKEREFVAGISWGGGRTSYTDSVKGRFTISRDNAKNTVYLQMNNLKPEDTGVYYCAGRYGRGRNVEYEYDYWGQGTQVTVSS | 149000
* A06 His (VHH, not shown: small tags and cut ends, also called #250) VHH: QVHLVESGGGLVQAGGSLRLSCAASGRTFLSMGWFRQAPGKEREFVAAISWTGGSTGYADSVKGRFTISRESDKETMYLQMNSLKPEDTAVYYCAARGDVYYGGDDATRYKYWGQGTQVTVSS | 117000
